All values here come from patent US8372420B2.

# Test system: P. aeruginosa PAE/K799 H187
# protocol_details: MIC determination by microtitre broth dilution
# Assay type: cell-based
# recorded_conditions: P. aeruginosa PAE/K799 H187, wt, Gram−; Mueller Hinton broth, 37° C., 24 h
assay_metric: Minimum Inhibitory Concentrations

                                   compound  measurement
0                    NC(=O)NO [hydroxyurea]  10^−4 Molar
1  O=C1c2c(O)ccc(O)c2C(=O)c2c(NCCNCCO)ccc(NCCNCCO)c21 [mitoxantrone, Mitoxantrone]  10^−5 Molar
2  Nc1ncnc2c1ccn2[C@@H]1O[C@H](CO)[C@@H](O)[C@H]1O [tubercidin]            N
3  Nc1ccn([C@@H]2O[C@H](CO)[C@@H](O)[C@@H]2O)c(=O)n1 [Cytarabine]            N
4      Sc1ncnc2nc[nH]c12 [6-mercaptopurine]            N
5  O=c1[nH]cc(F)c(=O)[nH]1 [5-fluorouracil, 5-Fluorouracil]  10^−5 Molar
6      Sc1ncc2[nH]cnc2n1 [2-mercaptopurine]            N
7  CC[C@@]1(O)C(=O)OCc2c1cc1n(c2=O)Cc2cc3ccccc3nc2-1 [camptothecin, Camptothecin]            N

###

# Test system: P. aeruginosa PAE/K799 H187
# protocol_details: MIC determination by microtitre broth dilution
# Format: cell-based
# recorded_conditions: P. aeruginosa PAE/K799 H187, wt, Gram−; Mueller Hinton broth, 37° C., 24 h

compound	Minimum Inhibitory Concentrations
CN(Cc1cnc2nc(N)nc(N)c2n1)c1ccc(C(=O)N[C@@H](CCC(=O)O)C(=O)O)cc1 [methotrexate, Methotrexate]	N
COc1cc([C@@H]2c3cc4c(cc3[C@@H](O[C@@H]3O[C@@H]5CO[C@@H](C)O[C@H]5[C@H](O)[C@H]3O)[C@H]3COC(=O)[C@H]23)OCO4)cc(OC)c1O [etoposide, Etoposide]	N
COc1cccc2c1C(=O)c1c(O)c3c(c(O)c1C2=O)C[C@@](O)(C(=O)CO)C[C@@H]3O[C@H]1C[C@H](N)[C@H](O)[C@H](C)O1 [doxorubicin, Doxorubicin]	10^−5 Molar

###

# System: S. pyogenes C721
# protocol_details: MIC determination by microtitre broth dilution
# Assay type: cell-based
# recorded_conditions: S. pyogenes C721, wt, Gram+; Todd Hewitt broth, 37° C., 24 h
assay_metric: Minimum Inhibitory Concentrations

>>> print(df.to_string())
                                   molecule  measurement
0                   O=c1[nH]cc(F)c(=O)[nH]1  10^−4 Molar
1                         Sc1ncnc2nc[nH]c12            N
2                    NC(=O)NO [hydroxyurea]  10^−4 Molar
3  CC[C@@]1(O)C(=O)OCc2c1cc1n(c2=O)Cc2cc3ccccc3nc2-1            N
4  Nc1ncnc2c1ccn2[C@@H]1O[C@H](CO)[C@@H](O)[C@H]1O            N

###

# Tested on: S. pyogenes C721
# protocol_details: MIC determination by microtitre broth dilution
# Type: cell-based
# recorded_conditions: S. pyogenes C721, wt, Gram+; Todd Hewitt broth, 37° C., 24 h

molecule	Minimum Inhibitory Concentrations
CN(Cc1cnc2nc(N)nc(N)c2n1)c1ccc(C(=O)N[C@@H](CCC(=O)O)C(=O)O)cc1 [methotrexate, Methotrexate]	10^−6 Molar
COc1cccc2c1C(=O)c1c(O)c3c(c(O)c1C2=O)C[C@@](O)(C(=O)CO)C[C@@H]3O[C@H]1C[C@H](N)[C@H](O)[C@H](C)O1 [doxorubicin, Doxorubicin]	10^−7 Molar
Sc1ncc2[nH]cnc2n1 [2-mercaptopurine]	N
O=C1c2c(O)ccc(O)c2C(=O)c2c(NCCNCCO)ccc(NCCNCCO)c21 [mitoxantrone, Mitoxantrone]	10^−6 Molar
COc1cc([C@@H]2c3cc4c(cc3[C@@H](O[C@@H]3O[C@@H]5CO[C@@H](C)O[C@H]5[C@H](O)[C@H]3O)[C@H]3COC(=O)[C@H]23)OCO4)cc(OC)c1O [etoposide, Etoposide]	10^−5 Molar
Nc1ccn([C@@H]2O[C@H](CO)[C@@H](O)[C@@H]2O)c(=O)n1 [Cytarabine]	N
